FYI, the data here is from PubChem BioAssay (NCI).

Form field: TGI (one value per entry).
Test system: SNB-75 CNS
Assay: NCI tumour cell line growth inhibition, 48 h
API: value field is a number in µM; no unit string.

Reference set (2 entries):
CCCCCN(CCCCC)CC(O)c1cc(C)c2ccc3cc(C(C)C)ccc3c2c1 (stereo not given)    2.65
Cc1cc(I)cc(CN(C)CCCCN2CCCCC2)c1O    32.8

With those in mind, consider the next compound.
Quote TGI reported for "CC(C)CCC[C@@H](C)[C@H]1CC[C@H]2[C@@H]3CC=C4C[C@@H](C(C(=O)O)C(=O)O)CC[C@]4(C)[C@H]3CC[C@]12C" please.
1.47

----------
Form field: GI50 (one value per entry).
Test system: IGROV1 ovarian
Test: NCI tumour cell line growth inhibition, 48 h

Reference set (5 entries):
NC(Cc1c[nH]c2c(O)cccc12)C(=O)O (stereo not given)    > 100 µM
O=C1C(Cl)=C(Nc2cccc(Cl)c2)C(=O)N1Cc1ccc(Cl)cc1Cl    < 0.023 µM
Cc1cc(I)cc(CN(C)CCCCN2CCCCC2)c1O    17.7 µM
C=C(CN1CCN(c2ccc(Cl)cc2F)CC1)c1ccc(C(=O)Nc2ccccc2N)cc1    1.16 µM
COc1ccc(-c2nc3sccn3c2/C(N)=N/C(=N)N)cc1OC    3.26 µM

Quote GI50 reported for CCCCOC(=O)C1OC(O[C@H]2CCC3(C)C(CCC4(C)C3CC=C3C5CC(C)(C)CCC5(C(=O)O)CC[C@]34C)C2(C)C)C(OC2OC(CO)C(O)C(O)C2O)C(OC2OC(CO)C(O)C(O)C2O)C1O (stereo not given in full) please.
> 100 µM

Quote GI50 reported for "Cc1ccc(NC2=C(Cl)C(=O)N(Cc3ccccc3)C2=O)cc1O" please.
35.4 µM

Quote GI50 reported for "Cc1ccc(C(=O)/C(=C/c2ccc([N+](=O)[O-])cc2)SCc2ccc(Cl)cc2)cc1" please.
2.23 µM

Quote GI50 reported for COc1cc(Cc2cnc(/N=C3\C(=O)N(CN4CCN(c5c(F)cc6c(=O)c(C(=O)O)cn(C7CC7)c6c5OC)CC4C)c4ccc(F)cc43)nc2N)cc(OC)c1OC (stereo not given) please.
25.1 µM

Quote GI50 reported for "COc1cc(-c2nn(-c3ccc(NC(=O)c4ccc(Cl)c(C(F)(F)F)c4)cc3)cc2-c2ccncc2)ccc1Cl" please.
3.96 µM

----------
Tested on: SNB-19 CNS
Assay: NCI tumour cell line growth inhibition, 48 h
Where a SMILES comes first, the peptide text is derived from it. [ ]: non-standard residue; d: D form. The star is where a group is joined. ξ: configuration not given here. X6 = FC(F)(F)c1cc(NC(=S)*)cc(C(F)(F)F)c1; ξF = NC(Cc1ccccc1)C(=O)O
Form field: TGI (one value per entry).

Reference set (4 entries):
Cc1ccsc1/C=N/Nc1ncccn1    > 100 µM
NC(=O)c1sc(-n2cnc3ccccc32)cc1OCc1ccccc1Br    > 25 µM
CCCCCN(CCCCC)CC(O)c1cc(C)c2ccc3cc(C(C)C)ccc3c2c1 (stereo not given)    3.73 µM
c1ccc(N=C2SC3=Nc4cccc5cccc(c45)N3C2=Nc2ccccc2)cc1    > 100 µM

Quote TGI reported for COC(=O)[C@@H](NC(=O)CNC(=O)[C@H]1CCCN1C(=O)C(Cc1ccccc1)NC(=S)Nc1cc(C(F)(F)F)cc(C(F)(F)F)c1)C(C)C (stereo not given in full) (X6-[ξF][dP]GV-OMe) please.
9.49 µM

Quote TGI reported for N#CC1C(C#N)C2(c3ccccc3)C(c3ccccc3)=NN(c3ccccc3)CC12 (stereo not given) please.
> 100 µM

Quote TGI reported for "CCCCCN(CCCCC)CCCNc1c2c(nc3ccc(Cl)cc13)CCCC2" please.
18.4 µM

Quote TGI reported for "CCCN=C1CCN(Cc2ccccc2)c2ccccc2N1" please.
> 100 µM

Quote TGI reported for "C[n+]1c2ccccc2c(/C=N\NS(=O)(=O)c2ccc(O)c(C(=O)O)c2)c2ccccc21" please.
> 100 µM

Quote TGI reported for "COc1cc2c(cc1OC)C(c1ccccc1CCCCl)=NCC2" please.
> 100 µM
